assay.name: self-splicing fitness, log relative to wild type (ln ratio); higher = more splicing; Tetrahymena group I intron in knt gene, E. coli kanamycin selection, DiMSum; sequences stand for … in CUCUCU…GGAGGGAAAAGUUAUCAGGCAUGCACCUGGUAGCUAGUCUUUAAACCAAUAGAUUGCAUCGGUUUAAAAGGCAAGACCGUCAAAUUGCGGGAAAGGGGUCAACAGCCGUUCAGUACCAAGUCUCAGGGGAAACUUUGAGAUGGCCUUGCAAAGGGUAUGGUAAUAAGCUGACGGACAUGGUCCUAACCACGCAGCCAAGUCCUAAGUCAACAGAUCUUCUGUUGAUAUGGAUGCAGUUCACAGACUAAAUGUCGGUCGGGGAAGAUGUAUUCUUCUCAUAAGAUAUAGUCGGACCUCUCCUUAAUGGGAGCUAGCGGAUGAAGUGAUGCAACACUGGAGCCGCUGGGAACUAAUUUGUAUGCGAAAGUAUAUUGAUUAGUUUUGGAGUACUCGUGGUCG;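 also: selection with 25 µg/mL kanamycin versus none on LB agar overnight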
condition.details: 30 °C
value.kind: self-splicing fitness (ln)

> print(dat)
         sequence.entry                  value.kind  quantitative.result
1  GAGCAGCAAUAUUACGUAAU  self-splicing fitness (ln)                -1.59
2  CGCCAGCAAUAUUACGCAUG  self-splicing fitness (ln)               -0.241
3  GGAGAGCAAUAUUACGGGCG  self-splicing fitness (ln)                -3.79
4  UUAGAGCAAUAUUACGAUAC  self-splicing fitness (ln)                -2.36
5  AUAUAGCAAUAUUACGUUCG  self-splicing fitness (ln)                -1.57
6  AUCAAGCAAUAUUACGAAAG  self-splicing fitness (ln)                -3.67
7  UUGUAGCAAUAUUACGAGGC  self-splicing fitness (ln)                -3.07
8  GAGGAGCAAUAUUACGUAGU  self-splicing fitness (ln)                -2.29

###

# reported self-splicing fitness (ln); entries follow
assay.name: self-splicing fitness, log relative to wild type (ln ratio); higher = more splicing; Tetrahymena group I intron in knt gene, E. coli kanamycin selection, DiMSum; sequences stand for … in CUCUCU…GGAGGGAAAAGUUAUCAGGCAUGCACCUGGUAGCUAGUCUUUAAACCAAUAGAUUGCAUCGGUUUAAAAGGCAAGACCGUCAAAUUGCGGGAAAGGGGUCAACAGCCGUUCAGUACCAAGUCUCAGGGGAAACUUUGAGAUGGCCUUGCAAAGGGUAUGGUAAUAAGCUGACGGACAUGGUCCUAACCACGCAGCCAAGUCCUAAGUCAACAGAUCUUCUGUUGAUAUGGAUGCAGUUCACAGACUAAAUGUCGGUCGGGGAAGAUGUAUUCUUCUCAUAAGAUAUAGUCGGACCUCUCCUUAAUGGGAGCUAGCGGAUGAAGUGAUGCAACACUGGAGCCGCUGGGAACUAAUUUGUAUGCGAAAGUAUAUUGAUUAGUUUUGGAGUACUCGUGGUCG
condition.details: 30 °C
value.kind: self-splicing fitness (ln)

> print(dat)
         sequence.entry  quantitative.result
1  AGGGAGCAAUAUUACGUGUU                -2.63
2  GUGCAGCAAUAUUACGGGUC                -2.38
3  AUCAAGCAAUAUUACGGUCU                -1.54
4  AUUUAGCAAUAUUACGUUCG                -1.39
5  CGGAAGCAAUAUUACGGCUA                -2.54
6  GAUAAGCAAUAUUACGCGUG               -0.603
